measurement-description: Maximum achievable bioavailability in human microsomes
Assay type: ADME, Microsome
condition-summary: human liver microsomes, read-out: Max Achievable Bioavailability
assay-metric: Fh (%)
Give bare numbers, in %.

Need Fh, item CCCN1CNC(=O)C12CCN([C@@H]1CCCC[C@@]1(O)c1ccccc1)CC2 (racemic) 84

###

target-desc: Sodium- and chloride-dependent glycine transporter 1 (Homo sapiens)
Sequence (P48067 whole entry): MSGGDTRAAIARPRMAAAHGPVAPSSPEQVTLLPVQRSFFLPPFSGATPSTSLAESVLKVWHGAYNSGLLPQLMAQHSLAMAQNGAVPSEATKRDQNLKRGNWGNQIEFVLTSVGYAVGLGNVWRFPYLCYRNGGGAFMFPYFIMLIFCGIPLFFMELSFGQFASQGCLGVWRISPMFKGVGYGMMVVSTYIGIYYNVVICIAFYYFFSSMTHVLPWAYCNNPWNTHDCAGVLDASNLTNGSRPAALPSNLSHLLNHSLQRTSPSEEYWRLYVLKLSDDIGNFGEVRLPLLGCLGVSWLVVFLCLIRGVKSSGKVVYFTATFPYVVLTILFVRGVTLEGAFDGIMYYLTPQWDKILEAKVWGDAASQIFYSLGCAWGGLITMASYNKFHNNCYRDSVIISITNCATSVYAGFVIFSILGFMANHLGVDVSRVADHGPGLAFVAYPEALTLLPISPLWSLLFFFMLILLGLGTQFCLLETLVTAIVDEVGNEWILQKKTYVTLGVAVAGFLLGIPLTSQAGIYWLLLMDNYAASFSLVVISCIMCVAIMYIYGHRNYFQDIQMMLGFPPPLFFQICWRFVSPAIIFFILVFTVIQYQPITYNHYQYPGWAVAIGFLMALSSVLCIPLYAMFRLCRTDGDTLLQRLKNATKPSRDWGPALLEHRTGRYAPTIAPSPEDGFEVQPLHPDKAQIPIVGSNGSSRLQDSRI
measurement-description: Displacement of [3H]glycine from human GlyT1 by radiometric assay
assay-metric: pEC50
Give bare numbers, as −log10 of the molar value.

O=C1NCN(c2ccccc2)C12CCN([C@H]1CCCC[C@@]1(O)c1ccccc1)CC2 (racemic)    7.25

Report pEC50 for every entry below.
1. O=C1NCN(c2ccccc2)C12CCN([C@@H]1CCCC[C@@]1(O)c1cccc(Cl)c1)CC2 (racemic)
2. O=C1NCN(c2ccccc2)C12CCN([C@@H]1CCCC[C@@]1(O)c1ccncc1)CC2 (racemic)
3. O=C1NCN(c2ccccc2)C12CCN([C@@H]1CCCC[C@@]1(O)c1ccc(Cl)cc1)CC2 (racemic)

1: 6.89; 2: 7.21; 3: 7.10

Report pEC50 for every entry below.
1. C[C@]1(O)CCCC[C@H]1N1CCC2(CC1)C(=O)NCN2c1ccccc1 (racemic)
2. Cc1ccccc1[C@]1(O)CCCC[C@H]1N1CCC2(CC1)C(=O)NCN2c1ccccc1 (racemic)
3. O=C1NCN(c2ccccc2)C12CCN([C@@H]1CCCC[C@@]1(O)Cc1ccccc1)CC2 (racemic)
4. O=C1NCN(c2ccccc2)C12CCN([C@@H]1CCCC[C@@]1(O)C1CCCCC1)CC2 (racemic)
5. Cc1ccc([C@]2(O)CCCC[C@H]2N2CCC3(CC2)C(=O)NCN3c2ccccc2)cc1 (racemic)
6. O=C1NCN(c2ccccc2)C12CCN([C@@H]1COCC[C@@]1(O)c1ccccc1)CC2 (racemic)

5.05
7.30
5.36
4.77
6.85
7.24

Report pEC50 for every entry below.
1. O=C1NCN(c2ccccc2)C12CCN([C@@H]1CCCC[C@@]1(O)c1ccccn1)CC2 (racemic)
2. COc1cccc([C@]2(O)CCCC[C@H]2N2CCC3(CC2)C(=O)NCN3c2ccccc2)c1 (racemic)
3. O=C1NCN(c2ccc(F)cc2)C12CCN([C@@H]1CCCC[C@@]1(O)c1ccc(F)cc1)CC2 (racemic)
4. CC(C)(C)[C@]1(O)CCCC[C@H]1N1CCC2(CC1)C(=O)NCN2c1ccccc1 (racemic)
5. COc1ccc([C@]2(O)CCCC[C@H]2N2CCC3(CC2)C(=O)NCN3c2ccccc2)cc1 (racemic)
6. O=C1NCN(c2ccccc2)C12CCN([C@@H]1CCOC[C@@]1(O)c1ccccc1)CC2 (racemic)

6.89
6.89
7.62
4.54
6.58
7.05

###

measurement-description: Maximum achievable bioavailability in mouse microsomes
Type: ADME, Liver, microsome
condition-summary: read-out: Max Achievable Bioavailability
assay-metric: Fh (%)
Answers are plain numbers, in %.

Need Fh, item CCCN1CNC(=O)C12CCN([C@@H]1CCCC[C@@]1(O)c1ccccc1)CC2 (racemic) 81
